Experiment: compounds raising algal triacylglycerol storage – qHTS, Chlamydomonas reinhardtii, primary screen (AID 1159537);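 further: hits raise Nile Red signal meaning more stored TAG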
Conditions: Chlamydomonas reinhardtii TAG, Nile Red fluorescence, 72 h; screened at 10 µM (by protocol)
The whole screen tested about 44,000 compounds, of which about 370 (0.84%) were called active. How the calls were made is not given here. Shown is part of a subset that was picked to be rich in actives.
Pick one and only one: 1 for active, -1 for inactive

Example entries begin here.
- molecule: "COc1ccc(CNC(=O)C(c2ccccc2)c2ccccc2)cc1"
  discreteLabel: -1
- molecule: "CNC(=O)CN(c1ccc(F)cc1)S(C)(=O)=O"
  discreteLabel: -1
- molecule: "Cn1c(SCC(=O)Nc2cccc([N+](=O)[O-])c2)nc2ccccc21"
  discreteLabel: -1
- molecule: "O=C(C1=C(O)C(=O)N(c2ncccn2)C1c1cccc([N+](=O)[O-])c1)c1ccco1 (stereo not drawn)"
  discreteLabel: -1
- molecule: "Cc1ccc(C(C)C)c(OCC(O)CN2CCCC(C)C2)c1 (stereo not drawn)"
  discreteLabel: -1

Shifting focus to the molecule that follows.
In: Which outcome did this test record for the molecule O=C(O)c1sc2cc(F)ccc2c1Cl ?
Out: -1

---

Assay: compounds raising algal triacylglycerol storage – qHTS, Chlamydomonas reinhardtii, primary screen (AID 1159537);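 further: hits raise Nile Red signal meaning more stored TAG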
Conditions: Chlamydomonas reinhardtii TAG, Nile Red fluorescence, 72 h; screened at 10 µM (by protocol)
About 370 (0.84%) of roughly 44,000 compounds were called active. How the calls were made is not given here. What follows is part of a selection rich in actives, with near analogues and random picks from the rest.
Outcome field: choose from yes (1) for active, no (0) for inactive

- compound: "O=C(c1ccc([N+](=O)[O-])cc1)N1CCN(C2CCCC2)CC1"
  discreteLabel: "no (0)"

In: I would be grateful if you could indicate the recorded call for CS(=O)(=O)N(Cc1ccc(C(=O)Nc2cccnc2)cc1)c1ccccc1 .
Out: no (0)

In: Record request — test call for COc1ccccc1N(CC(=O)NC12CC3CC(CC(C3)C1)C2)S(=O)(=O)c1ccccc1
Out: no (0)

In: Kindly provide the recorded test outcome for the following compound: O=C(Nc1cccc(Cl)c1)Nc1ccccn1
Out: no (0)

In: Field: outcome | Entry: O=C(COc1ccc([N+](=O)[O-])cc1)Nc1ccc(Cl)cc1
Out: no (0)

In: State the result this test recorded for CCOC(=O)N1CCN(C2CCN(CC)CC2)CC1 .
Out: no (0)

In: Assay result, entry Cc1cc(=O)[nH]c(SCc2ccc(Cl)cc2)n1 — outcome?
Out: no (0)

---

Experiment: compounds raising algal triacylglycerol storage – qHTS, Chlamydomonas reinhardtii, primary screen (AID 1159537);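 further: hits raise Nile Red signal meaning more stored TAG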
Conditions: Chlamydomonas reinhardtii TAG, Nile Red fluorescence, 72 h; screened at 10 µM (by protocol)
Among all 44,000 compounds or so, about 370 (0.84%) were called active. No rule for the calls is given here. For the sample, actives were picked, then their nearest neighbours and some compounds at random.
// allowed return values: active, inactive

Completed entries (count: 6):
- compound: "NC(=O)CCSc1ccc(Cl)cc1"
  discreteLabel: "inactive"
- compound: "CCOc1ccc(NC(=O)Nc2nnc(Cc3ccc(OC)cc3)s2)cc1"
  discreteLabel: "inactive"
- compound: "O=C(Cc1ccc(Cl)cc1)N1CCN(c2ccc(Cl)cc2[N+](=O)[O-])CC1"
  discreteLabel: "inactive"
- compound: "O=C(COc1ccc(Br)cc1)N1CCN(c2ccccc2F)CC1"
  discreteLabel: "inactive"
- compound: "CC(C)(C)C1CCC(NCc2ccncc2)CC1 (configuration not stated)"
  discreteLabel: "active"
- compound: "O=C(COc1ccc(Br)cc1)Nc1ccc(N2CCOCC2)cc1"
  discreteLabel: "inactive"

// switching to the query compound
In: Field: outcome | Entry: CC(=O)c1nc2ccccc2n1Cc1ccccc1
Out: inactive
